B1: PSD2 (parent)
chain: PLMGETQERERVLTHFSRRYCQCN

Variants of: B1
Assay Notes: protein stability index of a GFP-peptide fusion (GPS, HEK-293T) (PSI 1-6); higher = more stable;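 also: lentivirally expressed fusions sorted by FACS into six bins by GFP to DsRed ratio, PSI derived from sequencing read proportions per bin multiplied by bin number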
Condition Parameters: c terminus: a fixed tail appended
Measurement Kind: protein stability index

INSERT INTO results (mutant, value_reported) VALUES
  ('M3T', 4.68),
  ('E8I', 2.69),
  ('R9A', 3.5),
  ('T6F', 2.22),
  ('R18N', 3.06),
  ('R9W', 1.46),
  ('E8A', 2.03),
  ('N24E', 3.84),
  ('Q7D', 3.72),
  ('P1C', 2.34),
  ('S17M', 2.51),
  ('T6Q', 2.97),
  ('T14I', 2.13),
  ('T14S', 3.18),
  ('Q7I', 1.97),
  ('E5S', 2.66),
  ('N24H', 3.21),
  ('C21T', 4.43),
  ('G4E', 3.95),
  ('H15S', 3.18),
  ('V12Y', 3.25),
  ('N24G', 3.05),
  ('R19A', 2.98),
  ('R19F', 2.88),
  ('F16Q', 4.78),
  ('L2P', 2.99),
  ('R19P', 3.59),
  ('R9K', 3.21),
  ('Q7F', 2.73),
  ('C23V', 3.56),
  ('S17L', 1.99),
  ('F16D', 4.44),
  ('F16P', 3.9),
  ('R11K', 2.87),
  ('C23Q', 4.39),
  ('Q7W', 1.44),
  ('H15D', 3.15),
  ('P1K', 2.25),
  ('C23L', 2.9),
  ('H15W', 1.2),
  ('N24K', 2.2),
  ('Q7T', 2.69),
  ('F16S', 4.35),
  ('Q22V', 1.69),
  ('S17Y', 2.89),
  ('R11I', 2.35);
